Molecular target: Amine oxidase [flavin-containing] A (Rattus norvegicus, UniProt P21396)
Sequence (P21396 whole entry): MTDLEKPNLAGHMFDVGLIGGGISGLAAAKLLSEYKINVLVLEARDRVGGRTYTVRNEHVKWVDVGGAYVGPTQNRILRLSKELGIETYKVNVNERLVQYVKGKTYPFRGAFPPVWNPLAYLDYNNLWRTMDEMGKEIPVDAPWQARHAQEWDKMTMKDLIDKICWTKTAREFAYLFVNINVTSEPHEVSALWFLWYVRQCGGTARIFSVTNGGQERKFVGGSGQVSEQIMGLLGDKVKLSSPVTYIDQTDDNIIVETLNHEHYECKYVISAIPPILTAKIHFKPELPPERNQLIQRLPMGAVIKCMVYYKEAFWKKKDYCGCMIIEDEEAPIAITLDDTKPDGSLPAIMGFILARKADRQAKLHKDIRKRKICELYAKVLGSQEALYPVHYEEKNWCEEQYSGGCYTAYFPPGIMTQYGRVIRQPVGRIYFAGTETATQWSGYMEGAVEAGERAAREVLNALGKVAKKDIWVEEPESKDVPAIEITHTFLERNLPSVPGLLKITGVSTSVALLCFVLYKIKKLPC
Assay: Inhibition of Monoamine oxidase A of rat liver mitochondrial membranes
Format: cell membranes, Membrane
measured property: IC50 (µM)

molecule=C#CCN(C)CCCCCCC.Cl test_target="Amine oxidase [flavin-containing] A (Rattus norvegicus, UniProt P21396)" obs_value=38
molecule="C#CCN(C)C(C)CCCCCCCC.Cl (stereo unspecified)" test_target="Amine oxidase [flavin-containing] A (Rattus norvegicus, UniProt P21396)" obs_value=3.9
molecule="C#CCN(C)C(C)CCCCC.Cl (stereo unspecified)" test_target="Amine oxidase [flavin-containing] A (Rattus norvegicus, UniProt P21396)" obs_value=19
molecule=C#CCN(C)CCCC.Cl test_target="Amine oxidase [flavin-containing] A (Rattus norvegicus, UniProt P21396)" obs_value=98
molecule="C#CCN(C)C(C)CCCC.Cl (stereo unspecified)" test_target="Amine oxidase [flavin-containing] A (Rattus norvegicus, UniProt P21396)" obs_value=90
molecule="C#CCN(C)C(C)CCC.Cl.O=C(O)C(=O)O (stereo unspecified)" test_target="Amine oxidase [flavin-containing] A (Rattus norvegicus, UniProt P21396)" obs_value=12
molecule=C#CCN(C)C(CC)CC test_target="Amine oxidase [flavin-containing] A (Rattus norvegicus, UniProt P21396)" obs_value=2.4
molecule="C#CCN(C)C(C)CCCCCCCCCC.Cl (stereo unspecified)" test_target="Amine oxidase [flavin-containing] A (Rattus norvegicus, UniProt P21396)" obs_value=1.9
molecule=C#CCN(C)CCCCC.O=C(O)C(=O)O test_target="Amine oxidase [flavin-containing] A (Rattus norvegicus, UniProt P21396)" obs_value=120

====

Documented log10 ED50 across a set of compounds
tested on: Mus musculus; assay: MAO activities in the mouse brain after intraperitoneal administration of compound towards PE (1.9 x 10e-5 M) substrate; format: functional; conditions: ip, read-out: ID50 (the source's name)
measured property: log10 ED50 (log10 of the value in µmol/kg)

compound=C#CCN(C)CCCCCCC.Cl measured_property="log10 ED50" obs_value=1.88
compound=C#CCN(C)C(CC)CC measured_property="log10 ED50" obs_value=0.43
compound="C#CCN(C)C(C)CCCCCCCC.Cl (stereo unspecified)" measured_property="log10 ED50" obs_value=1.18
compound="C#CCN(C)C(C)CCCCC.Cl (stereo unspecified)" measured_property="log10 ED50" obs_value=0.41
compound="C#CCN(C)C(C)CCCCCCCCCC.Cl (stereo unspecified)" measured_property="log10 ED50" obs_value=1.19
compound="C#CCN(C)C(C)CC (stereo unspecified)" measured_property="log10 ED50" obs_value=0.62
compound=C#CCN(C)CCCC.Cl measured_property="log10 ED50" obs_value=1.05
compound="C#CCN(C)C(C)CCCC.Cl (stereo unspecified)" measured_property="log10 ED50" obs_value=0.08
compound=C#CCN(C)[C@H](C)Cc1ccccc1 measured_property="log10 ED50" obs_value=0.36
compound="C#CCN(C)C(C)CCC.Cl.O=C(O)C(=O)O (stereo unspecified)" measured_property="log10 ED50" obs_value=0.23
compound=C#CCN(C)CCCCC.O=C(O)C(=O)O measured_property="log10 ED50" obs_value=0.83
